Test system: T-Rex 293 cell line SC3 cells lacking increased expression of androgen receptor protein
experimentalDetails: Cellular growth inhibition assay, T-Rex 293 SC3 cells without doxycycline (CellTiter-Glo, 72 hours)
Assay type: cell-based
conditionDetails: 72 h, T-Rex 293 cell line SC3 cells not exposed to doxycycline (lacking increased androgen receptor expression)
assayReadout: GI50

Tell me the measured GI50 of `Cc1sc2c(c1C)C(c1ccc(OC3CC4(C3)CC3(CCN(c5ccc(C(=O)N[C@H]6CC[C@H](Oc7ccc(C#N)c(Cl)c7)CC6)nn5)CC3)C4)nc1)=NCc1nnc(C)n1-2` , please.
> 3000 nM

Please do the same for `Cc1sc2c(c1C)C(c1ccc(O[C@@H]3CCCN(c4ccc(C(=O)N[C@H]5CC[C@H](Oc6ccc(C#N)c(Cl)c6)CC5)nn4)C3)cc1)=N[C@@H](Cc1ncco1)c1nnc(C)n1-2` as well.
> 3000 nM

Would you mind doing `Cc1sc2c(c1C)C(c1ccc(C3CN(C4CCN(c5ccc(C(=O)N[C@H]6CC[C@H](Oc7ccc(C#N)c(Cl)c7)CC6)nn5)CC4)C3)cc1)=N[C@@H](C)c1nnc(C)n1-2` as well?
< 500 nM

Try this molecule too: Cc1sc2c(c1C)C(c1ccc(N[C@H]3CC[C@@H](Nc4ncc(C(=O)N[C@H]5CC[C@H](Oc6ccc(C#N)c(Cl)c6)CC5)cn4)CC3)cc1)=NC(Cc1ncco1)c1nnc(C)n1-2 (stereo partly shown)
> 3000 nM

Please answer likewise for Cc1sc2c(c1C)C(c1ccc(C3CCC4(CCN(c5ccc(C(=O)N[C@H]6CC[C@H](Oc7ccc(C#N)c(Cl)c7)CC6)nn5)CC4)C3)cc1)=N[C@@H](C)c1nnc(C)n1-2 (stereo partly shown)
> 3000 nM

Also check `Cc1sc2c(c1C)C(c1ccc(OC[C@H]3CC[C@]4(CCCN(c5ccc(C(=O)N[C@H]6CC[C@H](Oc7ccc(C#N)c(Cl)c7)CC6)nn5)C4)C3)nc1)=N[C@@H](Cc1ncco1)c1nnc(C)n1-2`
> 3000 nM

What about this molecule? `COC[C@@H]1N=C(c2ccc(N3CCC4(CCCN(c5ccc(C(=O)N[C@H]6CC[C@H](Oc7ccc(C#N)c(Cl)c7)CC6)nn5)C4)CC3)cc2)c2c(sc(C)c2C)-n2c(C)nnc21`
< 500 nM

Now this one: `Cc1sc2c(c1C)C(c1ccc(O[C@H]3C[C@@]4(CCCN(c5ccc(C(=O)N[C@H]6CC[C@H](Oc7ccc(C#N)c(Cl)c7)CC6)nn5)C4)C3)cc1)=N[C@@H](C)c1nnc(C)n1-2`
> 3000 nM

Lookup Cc1sc2c(c1C)C(c1ccc(C3CCC4(CCN(c5ccc(C(=O)N[C@H]6CC[C@H](Oc7ccc(C#N)c(Cl)c7)CC6)nn5)C4)C3)cc1)=N[C@@H](C)c1nnc(C)n1-2 (stereo partly shown)
< 500 nM

Again, but for `CCNC(=O)C[C@@H]1N=C(c2ccc(N3CC(N(C)C4CN(c5ccc(C(=O)N[C@H]6CC[C@H](Oc7ccc(C#N)c(Cl)c7)CC6)nn5)C4)C3)cc2)c2c(sc(C)c2C)-n2c(C)nnc21`
> 3000 nM

###

Test system: T-Rex 293 cell line SC3 cells lacking increased expression of androgen receptor protein
experimentalDetails: Cellular growth inhibition assay, T-Rex 293 SC3 cells without doxycycline (CellTiter-Glo, 72 hours)
Format: cell-based
conditionDetails: 72 h, T-Rex 293 cell line SC3 cells not exposed to doxycycline (lacking increased androgen receptor expression)
Hi there, I'd appreciate the recorded GI50 for every entry that follows.

# GI50 lookup, item Cc1sc2c(c1C)C(c1ccc(OC[C@H]3C[C@]4(CCCN(c5ccc(C(=O)N[C@H]6CC[C@H](Oc7ccc(C#N)c(Cl)c7)CC6)nn5)C4)C3)cc1)=N[C@@H](C)c1nnc(C)n1-2 [I-309]
> 3 µM

Likewise for Cc1sc2c(c1C)C(c1ccc(N3CCC4(CCN(c5ccc(C(=O)N[C@H]6CC[C@H](Oc7ccc(C#N)c(Cl)c7)CC6)nn5)C4)C3)c(F)c1)=N[C@@H](C)c1nnc(C)n1-2 (stereo partly shown) [I-731] ?
< 0.5 µM

And then Cc1sc2c(c1C)C(c1ccc(CN(C)C(=O)CN(C)c3ccc(C(=O)N[C@H]4CC[C@H](Oc5ccc(C#N)c(Cl)c5)CC4)nn3)cc1)=N[C@@H](Cc1ncco1)c1nnc(C)n1-2 [I-299] , what is it?
> 3 µM

What would you report for Cc1sc2c(c1C)C(c1ccc(CC3CCC4(CCCN(c5ccc(C(=O)N[C@H]6CC[C@H](Oc7ccc(C#N)c(Cl)c7)CC6)nn5)C4)C3)nc1)=N[C@@H](C)c1nnc(C)n1-2 (stereo partly shown) [I-665] ?
> 3 µM

Then what about the compound CCNC(=O)C[C@@H]1N=C(c2ccc(OC3CCN(c4ccc(C(=O)N[C@H]5CC[C@H](Oc6ccc(C#N)c(Cl)c6)CC5)nn4)CC3)cc2)c2c(sc(C)c2C)-n2c(C)nnc21 [I-26] ?
0.5 to 1.5 µM

For Cc1sc2c(c1C)C(c1ccc(C[C@@H]3CC[C@]4(C3)CN(c3ccc(C(=O)N[C@H]5CC[C@H](Oc6ccc(C#N)c(Cl)c6)CC5)nn3)CCO4)cc1)=NC(Cc1ncco1)c1nnc(C)n1-2 (stereo partly shown) [I-288] then?
< 0.5 µM

Another compound to check: Cc1sc2c(c1C)C(c1ccc(C3CCC4(CC3)CCN(c3ccc(C(=O)N[C@H]5CC[C@H](Oc6ccc(C#N)c(Cl)c6)CC5)nn3)CC4)nc1)=N[C@@H](C)c1nnc(C)n1-2 [I-630]
< 0.5 µM

What would you report for COCC[C@@H]1N=C(c2ccc(N3CCC4(CC3)CCN(c3ccc(C(=O)N[C@H]5CC[C@H](Oc6ccc(C#N)c(Cl)c6)CC5)nn3)C4)cc2)c2c(sc(C)c2C)-n2c(C)nnc21 [I-567] ?
< 0.5 µM

And Cc1sc2c(c1C)C(c1ccc(OC3CC4(C3)CC3(CCN(c5ccc(C(=O)N[C@H]6CC[C@H](Oc7ccc(C#N)c(Cl)c7)CC6)nn5)CC3)C4)nc1)=NC1(CC1)c1nnc(C)n1-2 [I-504] ?
0.5 to 1.5 µM

Next compound: Cc1sc2c(c1C)C(c1ccc(C#CC3CCC(Cc4ccc(C(=O)N[C@H]5CC[C@H](Oc6ccc(C#N)c(Cl)c6)CC5)nn4)CC3)cc1)=N[C@@H](Cc1ncco1)c1nnc(C)n1-2 (stereo partly shown) [I-546]
< 0.5 µM
